Entries with their measured log10 of IC50, system Acetylcholinesterase (Homo sapiens, UniProt P22303):
Please interpret these as log10 of IC50 where IC50 is in nM.

Worked cases, log10 of IC50 given:
>>> df
                                   molecule                           measured_target  recorded_number
0  COc1cc(N)c(Cl)cc1C(=O)CCC1CCN(Cc2ccncc2)CC1  Acetylcholinesterase (Homo sapiens, UniProt P22303)             2.08
1  COc1cc(N)c(Cl)cc1C(O)CCC1CCN(CC2CCCCC2)CC1 (stereo not given)  Acetylcholinesterase (Homo sapiens, UniProt P22303)             3.01
2  COc1cc(N)c(Cl)cc1C(=O)CCC1CCN(Cc2ccccc2)CC1  Acetylcholinesterase (Homo sapiens, UniProt P22303)             0.93
3  COc1cc(N)c(Cl)cc1C(=O)CCC1CCN(Cc2cccnc2)CC1  Acetylcholinesterase (Homo sapiens, UniProt P22303)             1.65

Shift focus to the following entry.
Lab note: Acetylcholinesterase (Homo sapiens, UniProt P22303) assay, enter log10 of IC50 for CCCCN1CCC(CCC(=O)c2cc(Cl)c(N)cc2OC)CC1 here
Sequence (P22303 whole entry): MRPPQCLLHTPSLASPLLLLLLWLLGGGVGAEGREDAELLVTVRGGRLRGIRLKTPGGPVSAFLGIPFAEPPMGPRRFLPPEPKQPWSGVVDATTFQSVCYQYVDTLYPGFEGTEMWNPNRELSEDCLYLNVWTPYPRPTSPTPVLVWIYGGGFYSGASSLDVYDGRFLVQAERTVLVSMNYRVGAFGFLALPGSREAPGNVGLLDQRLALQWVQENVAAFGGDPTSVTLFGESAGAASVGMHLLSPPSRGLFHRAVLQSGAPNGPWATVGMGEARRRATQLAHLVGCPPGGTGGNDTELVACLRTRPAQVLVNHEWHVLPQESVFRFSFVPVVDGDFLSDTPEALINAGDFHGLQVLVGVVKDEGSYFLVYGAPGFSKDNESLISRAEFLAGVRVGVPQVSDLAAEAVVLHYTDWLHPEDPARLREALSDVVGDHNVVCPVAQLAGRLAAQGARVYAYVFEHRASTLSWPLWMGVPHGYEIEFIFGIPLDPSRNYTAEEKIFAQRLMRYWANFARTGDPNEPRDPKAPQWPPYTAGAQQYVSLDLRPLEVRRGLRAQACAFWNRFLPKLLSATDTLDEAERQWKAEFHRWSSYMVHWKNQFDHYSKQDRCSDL
2.61

From: ChEMBL document CHEMBL3414476
